system: DYRK1A; conditions: concentration: 1 μM, replicates: in singlicate; n = 1;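 also: KINOMEscan kinase panel screen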
property: %Inh (%)
# unit: % | format: bare number

- compound: "O=C(c1ccc(-c2cc(-c3c[nH]nc3-c3ccccn3)ccn2)cc1)N1CCOCC1 [GW812171]"
  studyTarget: "DYRK1A"
  %Inh [%]: 0

Note to self: %Inh of COC(=O)Nc1nc2cc(Oc3ccc(NC(=O)Nc4cc(F)ccc4F)cc3)ccc2[nH]1.Cl [GW701424] with DYRK1A was 5

Form field %Inh for item Cn1ccc2ncnc(Oc3ccc(NC(=O)Nc4ccncc4)c(Cl)c3)c21 on DYRK1A: 0

Item c1ccc(-c2cc(-c3c[nH]nc3-c3ccccn3)ccn2)cc1 [GW576604] was tested on DYRK1A; the reported %Inh is 4

Reading of %Inh for Cc1nnc(-c2ccc3occ(-c4ccc(C(C)O)cc4)c3c2)o1 (stereo not drawn) with DYRK1A: 18

Here CN1c2ccc(NCc3ccc(F)cc3)cc2-c2c(cnn2C)S1(=O)=O was tested on DYRK1A, and its %Inh came to 0

Hey, DYRK1A data for CCn1cnc2c(N)ncnc21 [GW345098] : %Inh came out at 0

Result for COc1cc2c(cc1OC[C@@H](O)CO)ncc1c3ccc(C#N)cc3[nH]c21 , tested on DYRK1A, %Inh: 99

Bench note, DYRK1A: CCc1ccnc(/C=C/c2n[nH]c3cc(Sc4ccccc4C(=O)NC)ccc23)c1 , %Inh reads 8
